# experimental system: T1, cMet-Fc fusion protein (extracellular domain of the cMet receptor expressed as an Fc-fusion protein) (human, UniProt P08581 25-932)
# T1 construct: extracellular domain; also called soluble cMet-Fc-fusion protein; soluble cMet receptor; not shown: Fc part
# T1 sequence (P08581 25-932): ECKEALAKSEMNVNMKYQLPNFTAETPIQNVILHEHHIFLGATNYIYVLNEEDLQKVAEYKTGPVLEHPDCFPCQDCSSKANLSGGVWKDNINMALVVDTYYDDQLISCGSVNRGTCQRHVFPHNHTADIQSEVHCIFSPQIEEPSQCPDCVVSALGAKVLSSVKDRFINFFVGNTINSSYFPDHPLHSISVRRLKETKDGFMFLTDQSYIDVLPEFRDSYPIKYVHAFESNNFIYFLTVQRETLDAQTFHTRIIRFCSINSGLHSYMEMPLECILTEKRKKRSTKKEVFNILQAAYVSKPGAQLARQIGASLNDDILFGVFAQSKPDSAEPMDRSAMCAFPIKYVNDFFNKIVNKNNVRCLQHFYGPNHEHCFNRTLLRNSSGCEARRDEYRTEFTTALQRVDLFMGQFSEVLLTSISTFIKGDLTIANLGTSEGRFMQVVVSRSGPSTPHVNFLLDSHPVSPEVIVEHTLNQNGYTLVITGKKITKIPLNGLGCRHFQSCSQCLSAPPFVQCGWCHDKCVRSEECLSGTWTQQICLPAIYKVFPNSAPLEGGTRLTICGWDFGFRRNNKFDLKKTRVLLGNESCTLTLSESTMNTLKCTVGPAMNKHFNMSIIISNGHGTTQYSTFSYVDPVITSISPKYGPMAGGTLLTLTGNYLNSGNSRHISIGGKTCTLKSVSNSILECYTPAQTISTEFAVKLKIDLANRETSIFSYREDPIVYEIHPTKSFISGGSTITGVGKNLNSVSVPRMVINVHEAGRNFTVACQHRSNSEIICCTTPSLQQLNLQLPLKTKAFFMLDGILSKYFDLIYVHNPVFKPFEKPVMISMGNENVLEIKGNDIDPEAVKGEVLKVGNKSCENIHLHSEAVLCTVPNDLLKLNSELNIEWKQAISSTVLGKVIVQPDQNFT
# assay text: phage ELISA, cMet-Fc vs TRAIL-Fc
measured metric: Protein ELISA (fold over background) (fold)
Your answer is read as fold, so omit the unit and give the number.

[in] # query: Protein ELISA (fold over background) of entry AGHGTCRGWPTFECIYFGT [332-A05 peptide-displaying phage (SEQ ID NO: 064)]
[out] 6

[in] # query: Protein ELISA (fold over background) of entry GDLLVCKFDDKFWTETCEWADP [549-G05 peptide-displaying phage (SEQ ID NO: 392)]
[out] 23.7

[in] # query: Protein ELISA (fold over background) of entry AGTLSCSEEYKSCQLQGT [465-E09 peptide-displaying phage (SEQ ID NO: 027)]
[out] 3.6

[in] # query: Protein ELISA (fold over background) of entry GDASWCDENSPAAWFYCELWDP [551-D02 peptide-displaying phage (SEQ ID NO: 394)]
[out] 13.4

[in] # query: Protein ELISA (fold over background) of entry AGVNSCLGPPTFECYQMGT [332-C03 peptide-displaying phage (SEQ ID NO: 076)]
[out] 5.7

[in] # query: Protein ELISA (fold over background) of entry AGPWKCTGPPTFSCIQFGT [548-D08 peptide-displaying phage (SEQ ID NO: 090)]
[out] 19.5

[in] # query: Protein ELISA (fold over background) of entry AGNYFCAGSPSFSCYFMGT [330-C10 peptide-displaying phage (SEQ ID NO: 054)]
[out] 13.4
